Below: a set of entries, each annotated with reported EC50.
# System: CEM cells HIV-1 protection, formazan growth assay
# procedureDetails: NCI AIDS Antiviral Assay

q: Param item = "C[C@]12CC[C@H]3[C@@H](CC[C@]4(O)C[C@@H](O)CC[C@]34C=O)[C@@]1(O)CC[C@@H]2C1=CC(=O)OC1" ; retrieve measured EC50.
a: > 2 µM

q: Param item = S=C1CC(c2ccccc2)Sc2ccc(Cl)cc2N1 (stereo unspecified) ; retrieve measured EC50.
a: > 200 µM

q: Param item = O=C1CCC(C(Sc2ccccc2)(Sc2ccccc2)Sc2ccccc2)C1 (stereo unspecified) ; retrieve measured EC50.
a: > 200 µM

q: Param item = "O=C1NC(=O)C(=Cc2ccccc2Br)C(=O)N1" ; retrieve measured EC50.
a: > 229 µM

q: Param item = "COc1ccccc1C1=C2C(=O)N(C)C(c3ccccc3OC)=C2C(=O)N1C" ; retrieve measured EC50.
a: > 100 µM

q: Param item = "COc1ccc(-c2nnc3c4ccccc4sn23)cc1" ; retrieve measured EC50.
a: > 25.7 µM

q: Param item = "CCN(CC)c1c(-c2ccccc2)nnc2c3ccccc3nn12" ; retrieve measured EC50.
a: > 200 µM

q: Param item = CCCCC(/C=C\COC1CCCCO1)=C/C(=O)OCC (stereo unspecified) ; retrieve measured EC50.
a: > 126 µM

q: Param item = "O=c1oc2ccccc2n1CCN1CCCCC1" ; retrieve measured EC50.
a: > 200 µM

q: Param item = "COc1ccc(OCc2nc3cc(C(F)(F)F)ccc3nc2-c2ccccc2)cc1" ; retrieve measured EC50.
a: > 200 µM

q: Param item = "O=C(N/N=C/C=C/c1ccccc1)c1ccncc1" ; retrieve measured EC50.
a: > 200 µM

* * *

Below: a set of entries, each annotated with reported pEC50.
# System: CEM cells HIV-1 protection, formazan growth assay
# procedureDetails: NCI AIDS Antiviral Assay
pEC50: −log10 of the molar value.

The following molecules have reported results that may help.
CCN(CC)C(=O)c1c(N2CCOCC2)cc(N(CC)CC)oc1=O | < 3.15
O=c1cc(O)c2c(ccc3ccccc32)[nH]1 | < 3.70
CCCCCC=C(c1cc(Cl)c(OC)c(C(=O)OCCC)c1)c1cc(Cl)c(OC)c(C(=O)OCCC)c1 | < 4.91
O=C1CC(c2ccc(O)cc2)Oc2cc(O)cc(O)c21 (stereo unspecified) | < 3.70
OC1CCCCCCCCCCC1SCCCCl (stereo unspecified) | < 3.70
O=C(Nc1ccc([N+](=O)[O-])cc1)N(c1cc(Cl)ccn1)C1CCCCC1 | < 3.70
COc1ccc(/C=C2/CSCC3=C2NC(=S)NC3c2ccc(OC)c(OC)c2OC)c(OC)c1OC (stereo unspecified) | < 3.70
COc1ccc(NC(=O)CC(=O)N2N=C(c3ccccc3)C(N=Nc3ccc(S(=O)(=O)CCOS(=O)(=O)O)cc3)C2=O)cc1 (stereo unspecified) | < 3.70

q: Param item = "CN(C)c1ccc(/C=N\N2C(=O)c3ccccc3C2=O)cc1" ; retrieve measured pEC50.
a: < 3.91

q: Param item = C=C1CC2[C@H](C)C(=O)CCC2(C)C2=C1C1CCC(C(C)CCC(=C)C(C)C(=O)O)C1(C)CC2=O (stereo partly specified) ; retrieve measured pEC50.
a: < 3.70

q: Param item = CC(C)(C)OC(=O)NC(Cc1cc(C(C)(C)C)c(O)c(C(C)(C)C)c1)C(=O)O (stereo unspecified) ; retrieve measured pEC50.
a: < 3.70

q: Param item = "CC1=C(C(=O)CC(=O)C(=O)Nc2ccc(C)c(C)c2)Sc2ccccc2N1" ; retrieve measured pEC50.
a: < 5.16

q: Param item = Cc1cn(C2CC(N=[N+]=[N-])C(COC(=O)CCCCCCCCCCCOc3ccccc3)O2)c(=O)[nH]c1=O (stereo unspecified) ; retrieve measured pEC50.
a: 7.30

q: Param item = CCCCCCCCCCCCCCCCCC(=O)NCC(COP(=O)(O)O)OCC (stereo unspecified) ; retrieve measured pEC50.
a: < 4.67

q: Param item = "COc1ccc(Nc2nc3c(N)cc(C(F)(F)F)cc3nc2-c2ccccc2)cc1OC" ; retrieve measured pEC50.
a: < 4.79

q: Param item = O=S(Cc1ccccc1)c1ccccc1Cn1cccc1 (stereo unspecified) ; retrieve measured pEC50.
a: < 3.70

q: Param item = "C/C(=N/OC(=O)N(C)C)c1cccc(Cl)c1" ; retrieve measured pEC50.
a: < 3.70

q: Param item = "COc1cc(C)c(C(=O)Oc2cc(C)c(C(=O)O)c(O)c2C)c(OC)c1C" ; retrieve measured pEC50.
a: < 3.70

q: Param item = "Brc1cccc(-c2nc3ccccc3[nH]2)c1" ; retrieve measured pEC50.
a: < 3.88

q: Param item = "N#C/C(=C/n1c(=S)[nH]c2ccc([N+](=O)[O-])cc21)C(N)=O" ; retrieve measured pEC50.
a: < 3.70

q: Param item = CC(=O)OC1CC2C(CCC3(C)C(OC(C)=O)CCC23)c2c(OS(=O)(=O)c3ccccc3)ccc(C)c21 (stereo unspecified) ; retrieve measured pEC50.
a: < 4.00
